system: UO-31 renal; assay: NCI tumour cell line growth inhibition, 48 h
recorded_metric: log10 of TGI (log10 of the value in µM)

{"compound": "O=C(C/C=C/c1ccccc1)c1ccccc1", "log10 of TGI": 1.45}
{"compound": "Cc1c(F)c(NC(=O)CN(C)C)c2c(=O)cc(-c3ccc(NC(=O)CN(C)C)c(F)c3)oc2c1F", "log10 of TGI": 1.43}
{"compound": "CN1CCN(Cc2ccc(NC(=O)c3cncc(C#Cc4cnc(N)c5cnccc45)c3)cc2C(F)(F)F)CC1", "log10 of TGI": 0.12}
{"compound": "N#CC1C(=O)NC(c2ccccc2[N+](=O)[O-])c2sc3c(F)cccc3c21 (stereo unspecified)", "log10 of TGI": 1.56}
{"compound": "COc1cccc(Nc2nccc(-c3cnn4ncccc34)n2)c1", "log10 of TGI": -0.68}
{"compound": "COc1cc2c(cc1C)NC(=O)/C2=C\\c1c[nH]c2ccccc12", "log10 of TGI": 1.80}

* * *

TGI reference
system: SK-OV-3 ovarian; assay: NCI tumour cell line growth inhibition, 48 h
recorded_metric: TGI

{"molecule": "CC1=C([Se]CC(OC(=O)[C@@H](CO)NC(=O)OC(C)(C)C)C(=O)NCCCCCC(=O)OCc2ccccc2)C(=O)c2ccccc2C1=O (stereo not given in full)", "recorded_metric": "TGI", "value_measured": "2.56 µM"}
{"molecule": "O=P(O)(CN1CCN(CP(=O)(O)c2ccccc2)CCN(CP(=O)(O)c2ccccc2)CC1)c1ccccc1", "recorded_metric": "TGI", "value_measured": "> 100 µM"}
{"molecule": "O=C1C=CC2(C=C1)C[C@H](NC(=O)OCc1ccccc1)C(=O)O2", "recorded_metric": "TGI", "value_measured": "> 92.3 µM"}
{"molecule": "CCCCC(=O)Nc1ccc2c(C)cc(-c3ccc(-c4cc(-c5ccc(C)cc5)cc(-c5ccc(-c6cc(C)c7ccc(NC(=O)CCCC)nc7n6)cc5)n4)cc3)nc2n1", "recorded_metric": "TGI", "value_measured": "> 100 µM"}
{"molecule": "O=c1oc2ccc3ccccc3c2cc1-c1nc2ccc([N+](=O)[O-])cc2o1", "recorded_metric": "TGI", "value_measured": "> 100 µM"}
{"molecule": "C#Cc1cccc(NC(=O)c2ccc(NC(=O)CCl)cc2)c1", "recorded_metric": "TGI", "value_measured": "> 82.5 µM"}
{"molecule": "COC(=O)C1C=CCON2CCc3c(n(S(=O)(=O)c4ccccc4)c4ccccc34)C12 (stereo not given)", "recorded_metric": "TGI", "value_measured": "> 85.7 µM"}
{"molecule": "C#CC1NC(=O)C1N(CC)CC (stereo not given)", "recorded_metric": "TGI", "value_measured": "> 100 µM"}
{"molecule": "O=C1O/C(=C\\c2ccc(O)cc2)C(c2ccc(O)c(Cl)c2)=C1Cl", "recorded_metric": "TGI", "value_measured": "> 100 µM"}
{"molecule": "CCCNC(=O)N1CC(CN2CCN(c3ccccc3)CC2)O/C1=N/C(=O)Nc1ccccc1 (stereo not given)", "recorded_metric": "TGI", "value_measured": "> 100 µM"}

* * *

test system: NCI/ADR-RES ovarian; assay: NCI tumour cell line growth inhibition, 48 h

{"compound": "CCCCC(=O)Nc1ccc2c(C)cc(-c3ccc(-c4cc(-c5ccc(C)cc5)cc(-c5ccc(-c6cc(C)c7ccc(NC(=O)CCCC)nc7n6)cc5)n4)cc3)nc2n1", "assayed_target": "NCI/ADR-RES ovarian", "censoring_operator": ">", "TGI, µM": 100}
{"compound": "CC(=O)Nc1ccc(Sc2nnc(NC(C)=O)s2)cc1", "assayed_target": "NCI/ADR-RES ovarian", "censoring_operator": ">", "TGI, µM": 100}
{"compound": "O=C1NC(c2cccc(OCc3ccccc3)c2)Nc2ccccc21 (configuration not stated)", "assayed_target": "NCI/ADR-RES ovarian", "censoring_operator": "=", "TGI, µM": 0.468}
{"compound": "Nc1ccc(Sc2c3ccccc3nc3ccccc23)cc1", "assayed_target": "NCI/ADR-RES ovarian", "censoring_operator": "=", "TGI, µM": 36}
{"compound": "COC1CC(O[C@H]2CC[C@@]3(C)[C@@H](CC[C@]4(O)[C@@H]3CC[C@]3(C)[C@@H](C(C)=O)[C@H](OC(=O)CC(C)C)[C@@H](OC(=O)c5ccccc5)[C@@]34O)C2)OC(C)C1OC1CC(OC)C(OC2OC(C)C(O)C(OC)C2O)C(C)O1 (some centres not stated)", "assayed_target": "NCI/ADR-RES ovarian", "censoring_operator": ">", "TGI, µM": 25}
{"compound": "CCN(Cc1ccc(F)cc1)c1ccc(CO)c(OC)c1", "assayed_target": "NCI/ADR-RES ovarian", "censoring_operator": "=", "TGI, µM": 55.5}
{"compound": "Cc1cc(Cl)cc(Cc2cc(Cl)cc(C)c2O)c1O", "assayed_target": "NCI/ADR-RES ovarian", "censoring_operator": "=", "TGI, µM": 5.95}
{"compound": "O=c1c2ccccc2[nH]c2c(Cl)cc(Cl)c(N3CCCCC3)c12", "assayed_target": "NCI/ADR-RES ovarian", "censoring_operator": "=", "TGI, µM": 83.4}
{"compound": "CN1CCN(Cc2cc(NC(=O)c3cccc(C#Cc4cccc5[nH]nc(N)c45)c3)cc(C(F)(F)F)c2)CC1", "assayed_target": "NCI/ADR-RES ovarian", "censoring_operator": "=", "TGI, µM": 4.2}
{"compound": "C/C(=N/N=C(N)N)c1ccc(NC(=O)Nc2ccc(/C(C)=N/N=C(N)N)cc2)cc1", "assayed_target": "NCI/ADR-RES ovarian", "censoring_operator": ">", "TGI, µM": 100}
{"compound": "Nc1ncnc2c1ccn2[C@@H]1O[C@H]([C@H](O)c2ccc(Cl)c(F)c2)[C@@H](O)[C@H]1O", "assayed_target": "NCI/ADR-RES ovarian", "censoring_operator": ">", "TGI, µM": 100}
{"compound": "C=C(C)[C@@H]1CC[C@]2(C(=O)OCCOCCOCC[P+](c3ccccc3)(c3ccccc3)c3ccccc3)CC[C@]3(C)[C@H](CC[C@@H]4[C@@]5(C)CC[C@H](OC(=O)C(Cl)Cl)C(C)(C)[C@@H]5CC[C@]43C)[C@@H]12", "assayed_target": "NCI/ADR-RES ovarian", "censoring_operator": "=", "TGI, µM": 9}
{"compound": "CN(C)CCNC(=O)NC[C@H]1CC[C@@H]2[C@H](O1)c1cc(C(F)(F)F)ccc1N[C@H]2c1ccccc1", "assayed_target": "NCI/ADR-RES ovarian", "censoring_operator": ">", "TGI, µM": 100}
{"compound": "CC1=C2C3OC(=O)C(C)C3CCC2(C)C=CC1=Nc1ccccc1 (configuration not stated)", "assayed_target": "NCI/ADR-RES ovarian", "censoring_operator": ">", "TGI, µM": 100}
{"compound": "CNC(=O)NS(=O)(=O)c1ccc(C)cc1", "assayed_target": "NCI/ADR-RES ovarian", "censoring_operator": ">", "TGI, µM": 100}
{"compound": "O=C1c2ccccc2C(=O)N1CC(CN1C(=O)c2ccccc2C1=O)(C(=O)OCc1ccccc1)C(=O)OCc1ccccc1", "assayed_target": "NCI/ADR-RES ovarian", "censoring_operator": ">", "TGI, µM": 100}
{"compound": "Cc1ccc(N=C2C(c3ccccc3)=C(SC3=C(c4ccccc4)C(=Nc4ccc(C)cc4)c4ccccc43)c3ccccc32)cc1", "assayed_target": "NCI/ADR-RES ovarian", "censoring_operator": ">", "TGI, µM": 100}

* * *

tested on: HOP-62 NSCLC; experiment: NCI tumour cell line growth inhibition, 48 h
Measured TGI accompanies every entry in the list below.

{"compound": "Nc1ncnc2c1ccn2[C@@H]1O[C@H]([C@H](O)c2ccc(Cl)c(F)c2)[C@@H](O)[C@H]1O", "assayed_target": "HOP-62 NSCLC", "TGI": "> 100 µM"}
{"compound": "N#CC1C(=O)NC(c2ccccc2[N+](=O)[O-])c2sc3c(F)cccc3c21 (stereo not given)", "assayed_target": "HOP-62 NSCLC", "TGI": "28.9 µM"}
{"compound": "C/C(=N\\NC(=O)CC(=O)N(C(=O)c1ccc(Cl)cc1)c1ccc(C)cc1)c1ccccc1O", "assayed_target": "HOP-62 NSCLC", "TGI": "> 100 µM"}
{"compound": "CC1CN=C(Nc2ccc(F)c(Cl)c2)S1 (stereo not given)", "assayed_target": "HOP-62 NSCLC", "TGI": "> 100 µM"}
{"compound": "C=CC1(C)OC2(CCN(C(=O)OCC)CC2)OC1C (stereo not given)", "assayed_target": "HOP-62 NSCLC", "TGI": "> 100 µM"}
{"compound": "COc1ccc(C(=O)/C=C/c2ccc(OCC(=N)N)cc2)cc1", "assayed_target": "HOP-62 NSCLC", "TGI": "29.9 µM"}
{"compound": "COc1ccc2c(c1OC(C)=O)C1=CC(=O)CCC13CCNC3C2 (stereo not given)", "assayed_target": "HOP-62 NSCLC", "TGI": "> 100 µM"}
{"compound": "COC(=O)/C(C#N)=C(\\N)c1c(C)c2ccccc2oc1=N", "assayed_target": "HOP-62 NSCLC", "TGI": "> 100 µM"}
{"compound": "O=c1c([OH2+])c(-c2ccc(O)cc2[O-])oc2cc(O)cc([O-])c12.O=c1c([OH2+])c(-c2ccc(O)cc2[O-])oc2cc(O)cc([O-])c12.[Ti+4]", "assayed_target": "HOP-62 NSCLC", "TGI": "> 100 µM"}
{"compound": "CCCNC(=O)N1CC(CN2CCN(c3ccccc3)CC2)O/C1=N/C(=O)Nc1ccccc1 (stereo not given)", "assayed_target": "HOP-62 NSCLC", "TGI": "> 100 µM"}
{"compound": "CN(C)c1ccc(/C=C/c2cc(-c3ccccc3)[n+](C)n2-c2ccccc2)cc1", "assayed_target": "HOP-62 NSCLC", "TGI": "12.4 µM"}
{"compound": "CCOC1CC2OC(=O)C1C=C2C(=O)OC (stereo not given)", "assayed_target": "HOP-62 NSCLC", "TGI": "> 100 µM"}
{"compound": "CN(C)c1ccc(N=C2C=CC(=O)c3ccccc32)cc1", "assayed_target": "HOP-62 NSCLC", "TGI": "6.62 µM"}
{"compound": "COc1ccc(/C=C/C(=O)c2ccc(OC(=O)/C=C/c3ccccc3)cc2)cc1", "assayed_target": "HOP-62 NSCLC", "TGI": "> 100 µM"}
{"compound": "Cc1ccc(S(=O)(=O)Nc2ccc(-c3cc(-c4cccc(F)c4)c(C#N)c(N)n3)cc2)cc1", "assayed_target": "HOP-62 NSCLC", "TGI": "17.2 µM"}
{"compound": "COc1cccc(Nc2nccc(-c3cnn4ncccc34)n2)c1", "assayed_target": "HOP-62 NSCLC", "TGI": "0.532 µM"}
{"compound": "Cc1cccc2c1c(=O)c1c(O)cc(O)cc1n2C", "assayed_target": "HOP-62 NSCLC", "TGI": "> 100 µM"}
{"compound": "O=C(/C=C/OC(=O)c1cccc(Cl)c1)c1ccc(Cl)cc1", "assayed_target": "HOP-62 NSCLC", "TGI": "> 100 µM"}
{"compound": "COC(=O)C1=C(CCC[C@H](C)O[Si](C)(C)C(C)(C)C)NC(=O)N2[C@@H](CCO)CC[C@H]12", "assayed_target": "HOP-62 NSCLC", "TGI": "27.7 µM"}
{"compound": "COC(=O)C1=NN2c3ccccc3CN([C@@H](C)c3ccccc3)C(=O)[C@@H]2[C@H]1c1ccccc1", "assayed_target": "HOP-62 NSCLC", "TGI": "> 100 µM"}
